lowest phenotypically active concentration: recorded values
# Tested on: A549-ACTB-RAB5A
# assay-summary: lowest phenotypically active concentration; higher = less potent
# experimental-conditions: treatment time: 24 h

Nc1ccc(N=Nc2ccccc2)c(N)n1 [phenazopyridine]; ≤ 0.3 µM
C[C@]12CCC(=O)C=C1CC[C@@H]1[C@@H]2[C@@H](O)C[C@@]2(C)[C@H]1CC[C@]2(O)C(=O)CO [hydrocortisone]; ≤ 0.3 µM

Then there is this compound:
State measured lowest phenotypically active concentration of the compound CCN(CC)c1ccc(/C=N/NC(=O)c2ccncc2)c(O)c1 with A549-ACTB-RAB5A.
≤ 0.3 µM

###

# Test system: WPMY1-CANX-COX4
# assay-summary: phenotypically active (imaging signature differs from DMSO and reproducible) at any of 0.3-9 uM (binary (1 = active, 0 = inactive)); higher = active
# experimental-conditions: treatment time: 24 h
Counter-ions that a name gives are not always drawn.
Valid outcomes are listed here; reply with one: active, inactive

As a guide, the following entries are already answered.
Nc1cc(-c2ccncc2)c[nH]c1=O; inactive
Cc1ccc(NC(=O)c2cccc(C(C)(C)C#N)c2)cc1Nc1ccc2ncn(C)c(=O)c2c1; active
CC1=C(/C=C/C(C)=C/C=C/C(C)=C/C(=O)O)C(C)(C)CCC1; inactive
CCCCCCCCCCCCC/C=C/[C@@H](O)[C@H](CO)N(C)C; active
N#Cc1ccccc1OCC(O)CNCCNC(=O)Nc1ccccc1 (configuration not stated); inactive
O=C(NCc1cccc(O)c1)Nc1nc(-c2ccncc2)cs1 [RKI 1447 dihydrochloride]; active
Nc1ccn([C@@H]2O[C@H](CO)[C@@H](O)[C@H]2O)c(=O)n1; inactive
Clc1ccc2nsnc2c1NC1=NCCN1; inactive

Outcome logged for COc1ccc(OC)c(C(O)CNC(=O)CN)c1 (configuration not stated) in this assay:
inactive

Answer briefly: the call reported for CC(C)C(=O)Nc1ncc(-c2cc(C(F)F)nn2-c2c(Cl)cccc2Cl)s1 in this assay.
active

Kindly provide the recorded test outcome for the following molecule: NCC[C@H](O)C(=O)N[C@H]1C[C@@H](N)[C@H](O[C@H]2O[C@H](CN)[C@@H](O)[C@H](O)[C@H]2O)[C@@H](O)[C@@H]1O[C@H]1O[C@H](CO)[C@@H](O)[C@H](N)[C@H]1O [Amikacin hydrate]
inactive

How was C[C@H](NC(=O)c1sccc1OCc1ccc(Cl)cc1)c1ccccc1 classified in this test?
inactive

###

# Test system: HepG2-TP53BP1-CLTA
# assay-summary: lowest phenotypically active concentration; higher = less potent
# experimental-conditions: treatment time: 24 h
Items are presented alongside their recorded lowest phenotypically active concentration.

CO[C@@H]1[C@H](N(C)C(=O)c2ccccc2)C[C@H]2O[C@]1(C)n1c3ccccc3c3c4c(c5c6ccccc6n2c5c31)C(=O)NC4; ≤ 0.3 µM

Enter lowest phenotypically active concentration (test system HepG2-TP53BP1-CLTA) for C[C@H]1COCCN1c1cc(C2(S(=O)(=O)C3CC3)CC2)nc(-c2ccc(NC(=S)NCCO)cc2)n1
≤ 0.3 µM

System HepG2-TP53BP1-CLTA. Read-out lowest phenotypically active concentration. Item CCC(=O)N1CCN(c2ccc(-n3c(=O)ccc4cnc5ccc(-c6cnc7ccccc7c6)cc5c43)cc2C(F)(F)F)CC1 . Report value.
≤ 0.3 µM

###

# Tested on: A549-CANX-COX4
# assay-summary: lowest phenotypically active concentration; higher = less potent
# experimental-conditions: treatment time: 24 h
Where a name gives a salt, the structure may show the parent alone.
In this section, each of the compounds is paired with its reported lowest phenotypically active concentration.

Previously resolved entries follow.
CN1C/C(=C/c2ccc(B(O)O)cc2)C(=O)/C(=C/c2ccc(B(O)O)cc2)C1; ≤ 0.3 µM
CCC1(O)CC2CN(CCc3c([nH]c4ccccc34)C(C(=O)OC)(c3cc4c(cc3OC)N(C)C3C(O)(C(=O)OC)C(OC(C)=O)C5(CC)C=CCN6CCC43C65)C2)C1 (stereo not drawn) [Vinblastine sulfate]; ≤ 0.3 µM

Attention now turns to another entry.
In one line, give reported lowest phenotypically active concentration of the entry COc1c(C)cnc(Cn2cnc3c(Cl)nc(N)nc32)c1C .
≤ 0.3 µM

Taken from the supplement of paper PMC7411054.
